Molecular target: T1, human LTβR extracellular domain fused with an Fc fragment at the C-terminus (human, UniProt P36941 31-227)
T1 construct: extracellular domain; Bought; also called hLTβR; not shown: Fc fragment at the C-terminus
T1 sequence (P36941 31-227): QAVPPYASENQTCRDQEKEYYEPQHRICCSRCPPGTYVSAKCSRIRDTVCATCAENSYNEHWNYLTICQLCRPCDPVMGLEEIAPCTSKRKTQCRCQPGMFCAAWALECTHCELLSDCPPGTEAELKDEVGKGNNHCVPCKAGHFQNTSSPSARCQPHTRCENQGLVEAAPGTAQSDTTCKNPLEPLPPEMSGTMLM
Test: ELISA on coated target-Fc
measuredProperty: pEC50
Please keep in mind that pEC50 is minus log10 of the molar concentration; only the number is needed.

binder | pEC50
LIGHT-88 (ligand, Printed mutations: A95T, G150R, S160R, P174L, W198Q, L220S, R228L; Soluble protein carries an N-terminal His tag) DGPAGSWEQLIQERRSHEVNPTAHLTGANSSLTGSGGPLLWETQLGLAFLRGLSYHDGALVVTKAGYYYIYSKVQLRGVGCPLGLARTITHGLYKRTPRYLEELELLVSQQSPCGRATSSSRVWQDSSFLGGVVHLEAGEKVVVRVSDERLVRLLDGTRSYFGAFMV | 9.58
LIGHT-87 (ligand, Printed mutations: G150R, S160R, W198Q, L220S, R228L; Soluble protein carries an N-terminal His tag) DGPAGSWEQLIQERRSHEVNPAAHLTGANSSLTGSGGPLLWETQLGLAFLRGLSYHDGALVVTKAGYYYIYSKVQLRGVGCPLGLARTITHGLYKRTPRYPEELELLVSQQSPCGRATSSSRVWQDSSFLGGVVHLEAGEKVVVRVSDERLVRLLDGTRSYFGAFMV | 9.38
LIGHT-52 (ligand, Printed mutations: L220S; Soluble protein carries an N-terminal His tag) DGPAGSWEQLIQERRSHEVNPAAHLTGANSSLTGSGGPLLWETQLGLAFLRGLSYHDGALVVTKAGYYYIYSKVQLGGVGCPLGLASTITHGLYKRTPRYPEELELLVSQQSPCGRATSSSRVWWDSSFLGGVVHLEAGEKVVVRVSDERLVRLRDGTRSYFGAFMV | 9.48
LIGHT-60 (ligand, Printed mutations: S160G, T161G, L220S, E222S; Soluble protein carries an N-terminal His tag) DGPAGSWEQLIQERRSHEVNPAAHLTGANSSLTGSGGPLLWETQLGLAFLRGLSYHDGALVVTKAGYYYIYSKVQLGGVGCPLGLAGGITHGLYKRTPRYPEELELLVSQQSPCGRATSSSRVWWDSSFLGGVVHLEAGEKVVVRVSDSRLVRLRDGTRSYFGAFMV | 9.04
LIGHT (74-240) (ligand, Soluble protein carries an N-terminal His tag; also called wild-type human LIGHT; LIGHT (74-240) (wt)) DGPAGSWEQLIQERRSHEVNPAAHLTGANSSLTGSGGPLLWETQLGLAFLRGLSYHDGALVVTKAGYYYIYSKVQLGGVGCPLGLASTITHGLYKRTPRYPEELELLVSQQSPCGRATSSSRVWWDSSFLGGVVHLEAGEKVVVRVLDERLVRLRDGTRSYFGAFMV | 9.44

# next binder below
## Task Any idea what its pEC50 is? The binder is LIGHT-58 (ligand, Printed mutations: S160G, T161G, L220S; Soluble protein carries an N-terminal His tag) DGPAGSWEQLIQERRSHEVNPAAHLTGANSSLTGSGGPLLWETQLGLAFLRGLSYHDGALVVTKAGYYYIYSKVQLGGVGCPLGLAGGITHGLYKRTPRYPEELELLVSQQSPCGRATSSSRVWWDSSFLGGVVHLEAGEKVVVRVSDERLVRLRDGTRSYFGAFMV
## Result 9.51
